Data origin, for the record: ChEMBL document CHEMBL5303304

System: Fibroblast
PROCEDURE DETAILS: Incucyte cell viability with human fibroblast; note: unitless GR value; below 1 slowed growth and below 0 cell loss
Assay type: toxicity, cell-based
RUN CONDITIONS: 18 h, 10 µM, compound concentration 10 uM, replicate number 1
The reader will find reported Growth Rate values listed item by item below.

LINE NOTATION: O=C(NCC1(N2CCN(c3ccccc3)CC2)CCOCC1)c1cccnc1Sc1ccccc1
Growth Rate: -0.49
--
LINE NOTATION: O=C(O)c1cc(-c2ccccc2)ccc1O
Growth Rate: 0.96
--
LINE NOTATION: N#Cc1cccc(-c2nc(-c3cccnc3)no2)c1
Growth Rate: -0.08
--
LINE NOTATION: CN(Cc1cccc(F)c1CNc1cc(F)c(S(=O)(=O)Nc2cscn2)c(F)c1)C(C)(C)C
Growth Rate: 0.65
